Reported pEC50, cAMP accumulation values are given for each entry in this list.
- SUBJECT_OF_TEST: human Glucagon receptor (GCGR) (human, UniProt P47871 26-477)
- ASSAY_METHOD_TEXT: cell-based or functional assay
*1 amine or outer side, *2 acyl side, *3 side chain or, on linkers, in order; H or OH if unused. Bridges are numbered along the chain shown (N, C = ends). Primed or numbered codes have the meaning given here. Where no end group is shown, it is not given here. Side-chain parts run from the residue outwards. [ ]: non-standard residue; d: D form. The star is where a group is joined. dpeg″ = spacer —[CO(CH2)O(CH2)2O(CH2)NH]—, O=C(COCCOCN[*:1])[*:2]; dpeg = —[CO(CH2)O(CH2)2O(CH2)NH]— spacer, O=C(COCCOCN[*:1])[*:2]; C20 diacid = O=C(O)CCCCCCCCCCCCCCCCCCC(=O)*; γGlu = O=C(O)[C@H](CCC(=O)[*:2])N[*:1]; NMeE = CN[C@@H](CCC(=O)O)C(=O)O; Aib = CC(C)(N)C(=O)O

BINDER: YSHGTFTSDYSKYLDK([γGlu-γGlu-dpeg″-C20 diacid])KYAEKFVKWLEDEPSSGAPPPS-NH2 (lactam 20-24) [Compound A34]
pEC50, cAMP accumulation: 11.9 pEC50 (-log M)

BINDER: YSHGTFTSDYSKYLDK([γGlu-γGlu-dpeg-C20 diacid])KYAQEFV[Aib]WLENEPSSGAPPPS-OH [Compound A16]
pEC50, cAMP accumulation: 12.2 pEC50 (-log M)

BINDER: YSHGTFTSDYSKYLDK([γGlu-γGlu-dpeg-C20 diacid])KYAQEFV[Aib]WLE[NMeE]EPSSGAPPPS-OH [Compound A18]
pEC50, cAMP accumulation: 10.4 pEC50 (-log M)

BINDER: Ac-YSHGTFTSDYSKYLDK([γGlu-γGlu-dpeg″-C20 diacid])KYAEKFVKWLEDEPSSGAPPPS-OH (lactam 20-24) [Compound A37]
pEC50, cAMP accumulation: 11.5 pEC50 (-log M)

BINDER: YSHGTFTSDYSKYLDK([γGlu-γGlu-dpeg-C20 diacid])KYAQEF[Aib]KWLEDEPSSGAPPPS-OH [Compound A9]
pEC50, cAMP accumulation: 10.6 pEC50 (-log M)

BINDER: YSHGTFTSDYSKYLDK([γGlu-γGlu-dpeg″-C20 diacid])KYAEKFVKWLEDEPSSGKPPPS-OH (lactam 20-24) [Compound A32]
pEC50, cAMP accumulation: 11.7 pEC50 (-log M)

Entry YSHGTFTSDYSKYLDK([γGlu-γGlu-dpeg-C20 diacid])KYAQEF[Aib]SWLEDEPSSGAPPPS-OH [Compound A10] needs its pEC50, cAMP accumulation filled in; supply it.
10.4 pEC50 (-log M)

Entry YSHGTFTSDYSKYLD[Aib]KK([γGlu-γGlu-dpeg-C20 diacid])AQEFV[Aib]WLEDEPSSGAPPPS-OH [Compound A4] needs its pEC50, cAMP accumulation filled in; supply it.
11.7 pEC50 (-log M)

Entry YSHGTFTSDYSKYLDK([γGlu-γGlu-dpeg″-C20 diacid])KYAEKFVKWLEDE-NH2 (lactam 20-24) [Compound A35] needs its pEC50, cAMP accumulation filled in; supply it.
11.9 pEC50 (-log M)

Entry YSHGTFTSDYSKYLDK([γGlu-γGlu-dpeg″-C20 diacid])KYAEKFVKWLEDEPSSGAPPPS-OH (lactam 20-24) [Compound A21] needs its pEC50, cAMP accumulation filled in; supply it.
12.1 pEC50 (-log M)

Entry YSHGTFTSDYSKYLD[Aib]KYAK([γGlu-γGlu-dpeg-C20 diacid])EFV[Aib]WLEDEPSSGAPPPS-OH [Compound A5] needs its pEC50, cAMP accumulation filled in; supply it.
11.6 pEC50 (-log M)

Entry YSHGTFTSDYSKYLK([γGlu-γGlu-dpeg-C20 diacid])[Aib]KYAQEFV[Aib]WLEDEPSSGAPPPS-OH [Compound A1] needs its pEC50, cAMP accumulation filled in; supply it.
11.5 pEC50 (-log M)

Entry YSHGTFTSDYSKYLDK([γGlu-γGlu-dpeg-C20 diacid])KYAQEF[Aib]EWLEDEPSSGAPPPS-OH [Compound A8] needs its pEC50, cAMP accumulation filled in; supply it.
9.9 pEC50 (-log M)
